molecular target: T1, RhoB Q63L (UniProt P62745 1-193, limits assumed); test: binding kinetics, method not stated (Table 1)
T1 construct: also called RhoB Q63L (2SHA); constitutively active RhoB mutant
T1 sequence (P62745 1-193 Q63L limits assumed): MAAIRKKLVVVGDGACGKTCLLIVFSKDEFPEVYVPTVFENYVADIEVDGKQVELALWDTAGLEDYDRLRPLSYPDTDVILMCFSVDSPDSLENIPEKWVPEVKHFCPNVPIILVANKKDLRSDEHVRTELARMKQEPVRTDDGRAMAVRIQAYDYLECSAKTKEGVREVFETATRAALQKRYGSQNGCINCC
Measurement kind: pKd
Answers are plain numbers, as −log10 of the molar value.

Recorded pKd, per entry:
[[record]]
binder = "H12 hs2dAb (VHH, Humanized synthetic single domain antibody; Soluble form was used in ELISA and immunofluorescence and detected through a myc tag; also called clone H12; H12 antibody) VHH: VQLQASGGGFVQPGGSLRLSCAASGDGSRIYAMGWFRQAPGKEREFVSAISWEQDWEHYYADSVKGRFTISRDNSKNTVYLQMNSLRAEDTATYYCAAFMTPHRNLTSMYWGQGTQVTVSS"
measurement_kind = "pKd"
result_number = 8.80

[[record]]
binder = "4SNP61 hs2dAb (VHH) VHH: VQLQASGGGFVQPGGSLRLSCAASGFTSTSTVMGWFRQAPGKEREFVSAISSAHTMDTYYADSVKGRFTISRDNSKNTVYLQMNSLRAEDTATYYCAPAPMLGQMITQPALPYWGQGTQVTVSS"
measurement_kind = "pKd"
result_number = 8.33

[[record]]
binder = "5SNP48 hs2dAb (VHH) VHH: VQLQASGGGFVQPGGSLRLSCAASGTSWFTEVMGWFRQAPGKEREFVSAISGLHDVGTYYADSVKGRFTISRDNSKNTVYLQMNSLRAEDTATYYCAALDKWYTKAMDARKDYWGQGTQVTVSS"
measurement_kind = "pKd"
result_number = 8.28


Read the next record carefully.
q: Endpoint output: pKd of 5SNP65 hs2dAb (VHH) VHH: VQLQASGGGFVQPGGSLRLSCAASGATYEGEAMGWFRQAPGKEREFVSAISSYPSVISYYADSVKGRFTISRDNSKNTVYLQMNSLRAEDTATYYCAYWVNHEGTIREIYWGQGTQVTVSS . Value?
a: 8.63
